- testedOn: T1, mouse FRα (Mus musculus, UniProt P35846)
- T1 construct: CD33 signal peptide (N, cleaved yes); made in house
- assayOverview: HTRF antigen (IgG) binding assay
- conditionDescription: hybridoma supernatant, 1 nM biotinylated antigen; binder >30% delta F
reportedProperty: HTRF IgG binding assay (% Delta F) Mouse FRα
Lab book: enter the figure in % Delta F, no units written.

For orientation, consider the following solved cases.
AB1370026: anti-FRα fully human IgG1 antibody; VH SEQ ID NO: 39, VL SEQ ID NO: 40 (antibody, V domains shown) VH: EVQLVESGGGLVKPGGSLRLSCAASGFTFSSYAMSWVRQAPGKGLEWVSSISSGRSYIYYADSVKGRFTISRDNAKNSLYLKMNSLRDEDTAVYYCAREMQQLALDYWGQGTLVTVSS VL: DIQMTQSPSSLSASVGDRVTITCRASQGISNFLAWFQQAPGKAPKSLIYAASSLQSGVPSKFSGSGSGTDFTLTISSLQPEDFATYYCQQYNSYPFTFGQGTKLEIK; 1.63
AB1370095: anti-FRα fully human IgG1 antibody; VH SEQ ID NO: 45, VL SEQ ID NO: 46 (antibody, V domains shown) VH: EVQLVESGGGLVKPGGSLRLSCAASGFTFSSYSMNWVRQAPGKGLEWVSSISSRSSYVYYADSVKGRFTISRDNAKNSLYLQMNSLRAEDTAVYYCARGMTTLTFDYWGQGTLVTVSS VL: DIQMTQSPSSLSASVGDRVTITCRASQGISSFLAWFQQKPGKAPKSLIYAASSLQSGVPSKFSGSGSGTDFTLTISSLQPEDFATYYCQQYNSYPLTFGGGTKVEIK; −5.66

Form field HTRF IgG binding assay (% Delta F) Mouse FRα, entry AB1370083: anti-FRα fully human IgG1 antibody; VH SEQ ID NO: 43, VL SEQ ID NO: 44 (antibody, V domains shown) VH: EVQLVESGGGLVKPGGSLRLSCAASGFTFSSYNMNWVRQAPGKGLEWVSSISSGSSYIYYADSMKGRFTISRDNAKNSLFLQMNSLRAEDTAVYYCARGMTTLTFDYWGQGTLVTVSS VL: DIQMTQSPSSLSASVGDRVTITCRASQGISTFLAWFQQKPGKAPKSLIYAASSLQSGVPSKFSGSGSETDFTLTISSLQPEDFATYYCQQYISYPLTFGGGTKVEIK : −3.65
